For each record, write down the corresponding pIC50.
Molecular target: Human HDAC1 (Homo sapiens, UniProt Q13547)
Sequence (Q13547 whole entry): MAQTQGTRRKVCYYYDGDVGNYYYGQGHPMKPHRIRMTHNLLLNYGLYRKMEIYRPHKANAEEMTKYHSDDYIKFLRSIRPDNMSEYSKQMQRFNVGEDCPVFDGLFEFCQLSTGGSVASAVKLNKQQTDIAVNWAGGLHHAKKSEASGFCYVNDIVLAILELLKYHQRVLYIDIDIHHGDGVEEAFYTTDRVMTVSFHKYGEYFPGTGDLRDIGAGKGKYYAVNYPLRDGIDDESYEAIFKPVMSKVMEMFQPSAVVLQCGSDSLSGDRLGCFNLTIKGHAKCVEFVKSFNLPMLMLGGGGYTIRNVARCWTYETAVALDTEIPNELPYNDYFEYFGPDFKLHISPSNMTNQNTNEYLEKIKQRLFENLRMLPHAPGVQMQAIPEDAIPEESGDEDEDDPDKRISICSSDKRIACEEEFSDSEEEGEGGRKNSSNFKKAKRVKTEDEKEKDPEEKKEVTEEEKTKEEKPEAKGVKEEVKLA
Assay: In vitro HDAC inhibition assay, HDAC1
Note on pIC50: it is the negative log10 of concentration, concentration in mol/L.

Q: Quick check: pIC50 of COc1ccc(C(=O)NC(Cc2cc(C(=O)NO)no2)Cc2c[nH]c3ccccc23)cc1OC (stereo not shown) ?
A: 4.30

Q: Also `CC(C)(C)C(=O)Nc1cccc(-c2cc(C(=O)NCCc3cc(C(=O)NO)no3)no2)c1` , if possible.
A: 4.12

Q: Also `CC(C)(C)OC(=O)Nc1cccc(-c2cc(C(=O)NCCc3cc(C(=O)NO)no3)no2)c1` , if possible.
A: 4.27

Q: Also O=C(NC(Cc1cc(C(=O)NO)no1)Cc1c[nH]c2ccccc12)c1ccc(Cl)cc1 (stereo not shown) , if possible.
A: 4.33

----------
Molecular target: HDAC3/NcoR2 complex (Homo sapiens, UniProt O15379)
Sequence (O15379 whole entry): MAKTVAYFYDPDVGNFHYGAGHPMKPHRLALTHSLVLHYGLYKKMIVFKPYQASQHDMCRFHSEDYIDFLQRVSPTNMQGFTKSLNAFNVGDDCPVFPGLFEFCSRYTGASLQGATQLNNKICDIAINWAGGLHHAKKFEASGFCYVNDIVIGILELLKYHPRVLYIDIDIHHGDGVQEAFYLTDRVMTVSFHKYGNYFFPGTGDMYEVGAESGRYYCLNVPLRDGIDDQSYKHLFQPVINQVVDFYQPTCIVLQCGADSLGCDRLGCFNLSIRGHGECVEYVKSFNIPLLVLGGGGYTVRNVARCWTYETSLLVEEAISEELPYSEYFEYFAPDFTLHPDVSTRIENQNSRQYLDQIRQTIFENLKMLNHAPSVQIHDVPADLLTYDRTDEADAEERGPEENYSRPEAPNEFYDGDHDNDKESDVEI
Sequence (Q9Y618 395-489 partner limits assumed): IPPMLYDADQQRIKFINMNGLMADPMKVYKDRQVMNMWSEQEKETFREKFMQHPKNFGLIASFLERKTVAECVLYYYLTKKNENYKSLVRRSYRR
Test: In vitro HDAC inhibition assay, HDAC3
Conditions: NI = No inhibition at a concentration of 50 pM (footnote b); read-out: HDAC isoform IC50, HDAC3
endpoint: IC50 (nM)
The answer is to be given in nM; state only the numeric part.

Q: Request - read-out IC50 | tested on HDAC3/NcoR2 complex (Homo sapiens, UniProt O15379) | compound `O=C(Nc1cccc(-c2cc(C(=O)NCCc3cc(C(=O)NO)no3)no2)c1)c1ccccc1`
A: 7050

Q: Also `O=C(NO)c1ccc(CNC(=O)c2cc(-c3cccc(NC(=O)C4CCCCC4)c3)on2)cc1` , if possible.
A: 669

Q: Also O=C(NC(Cc1cc(C(=O)NO)no1)Cc1c[nH]c2ccccc12)c1ccc(Cl)cc1 (stereo not shown) , if possible.
A: 37800

Q: Also `CC(C)(C)OC(=O)Nc1ccc(-c2cc(C(=O)NCCc3cc(C(=O)NO)no3)no2)cc1` , if possible.
A: 22800

Q: Also `CC(C)(C)OC(=O)Nc1cccc(-c2cc(C(=O)NCc3ccc(C(=O)NO)cc3)no2)c1` , if possible.
A: 789

Q: Also `CCOC(=O)Nc1ccc(-c2csc(NC(=O)CCCc3cc(C(=O)NO)no3)n2)cc1` , if possible.
A: 354

Q: Also `O=C(CCCc1cc(C(=O)NO)no1)Nc1nc(-c2ccccc2)cs1` , if possible.
A: 934

Q: Also `CC(C)(C)OC(=O)Nc1ccc(-c2cc(C(=O)NCc3ccc(C(=O)NO)cc3)no2)cc1` , if possible.
A: 135

Q: Also `O=C(NO)c1ccc(CNC(=O)c2cc(-c3ccc(NC(=O)C4CCCCC4)cc3)on2)cc1` , if possible.
A: 215

Q: Also `CCOC(=O)Nc1ccc(-c2cc(C(=O)NCCc3cc(C(=O)NO)no3)no2)cc1` , if possible.
A: 5190

----------
Target: UniProt Q13547
Assay: In vitro HDAC inhibition assay, HDAC1
Settings: read-out: HDAC isoform IC50, HDAC1; NI = No inhibition at a concentration of 50 pM (footnote b)
For each record, write down the corresponding log10 of IC50.
In plain terms, each number is the log10 of measured IC50 in nM.

Q: Quick check: log10 of IC50 of Nc1cccc(-c2cc(C(=O)NCCc3cc(C(=O)NO)no3)no2)c1 [Compound 9] ?
A: 3.82

Q: Also CCOC(=O)Nc1cccc(-c2csc(NC(=O)CCc3cc(C(=O)NO)no3)n2)c1 [Compound 5] , if possible.
A: 2.42

Q: Also CC(C)(C)OC(=O)Nc1ccc(-c2cc(C(=O)NCc3ccc(C(=O)NO)cc3)no2)cc1 [Compound 15] , if possible.
A: 2.64

Q: Also O=C(NO)c1ccc(CNC(=O)c2cc(-c3ccc(NC(=O)C4CCCCC4)cc3)on2)cc1 [Compound 16] , if possible.
A: 2.54

Q: Also CCOC(=O)Nc1ccc(-c2cc(C(=O)NCCc3cc(C(=O)NO)no3)no2)cc1 [Compound 8] , if possible.
A: 3.59

Q: Also O=C(CCc1cc(C(=O)NO)no1)Nc1nc(-c2ccccc2)cs1 [Compound 1] , if possible.
A: 2.49

----------
Target: HDAC7 (Homo sapiens)
Sequence (Q8WUI4 1-952): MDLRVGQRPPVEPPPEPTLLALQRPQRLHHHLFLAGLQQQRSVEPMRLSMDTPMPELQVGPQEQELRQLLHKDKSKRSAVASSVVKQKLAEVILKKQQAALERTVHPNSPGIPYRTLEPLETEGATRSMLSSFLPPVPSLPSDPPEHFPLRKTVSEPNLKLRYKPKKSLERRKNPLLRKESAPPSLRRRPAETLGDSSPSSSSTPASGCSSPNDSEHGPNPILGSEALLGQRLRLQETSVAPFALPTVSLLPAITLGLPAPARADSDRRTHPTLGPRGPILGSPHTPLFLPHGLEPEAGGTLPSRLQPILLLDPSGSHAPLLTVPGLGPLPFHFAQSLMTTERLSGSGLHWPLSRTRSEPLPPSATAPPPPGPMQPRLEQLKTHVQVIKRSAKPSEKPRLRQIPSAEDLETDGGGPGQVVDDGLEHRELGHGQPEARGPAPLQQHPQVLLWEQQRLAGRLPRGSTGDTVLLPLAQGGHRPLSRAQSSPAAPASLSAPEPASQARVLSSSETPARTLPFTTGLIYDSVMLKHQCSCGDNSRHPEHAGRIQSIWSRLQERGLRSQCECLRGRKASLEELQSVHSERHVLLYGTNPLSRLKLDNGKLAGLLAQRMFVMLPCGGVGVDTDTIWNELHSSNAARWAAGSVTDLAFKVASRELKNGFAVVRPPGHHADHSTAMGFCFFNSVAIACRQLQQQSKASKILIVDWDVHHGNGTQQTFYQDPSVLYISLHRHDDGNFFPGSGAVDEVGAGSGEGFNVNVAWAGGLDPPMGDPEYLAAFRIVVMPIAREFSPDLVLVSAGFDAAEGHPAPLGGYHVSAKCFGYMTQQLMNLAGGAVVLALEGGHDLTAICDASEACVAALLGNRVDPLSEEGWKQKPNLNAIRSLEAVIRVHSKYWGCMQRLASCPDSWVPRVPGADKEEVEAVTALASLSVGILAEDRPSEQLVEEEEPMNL
Experiment: HDAC isoform inhibition, HDAC7
endpoint: pIC50
Note on pIC50: it is the negative log10 of concentration, concentration in mol/L.

Q: Request - read-out pIC50 | tested on HDAC7 (Homo sapiens) | compound `CC(C)(C)OC(=O)Nc1ccc(-c2cc(C(=O)NCCc3cc(C(=O)NO)no3)no2)cc1`
A: 3.98

----------
Test system: L3.6pl
Experiment: In vitro growth inhibition (GI), MTS cell proliferation assay (Table 5), L3.6pl
Format: cell-based
Details: Homo sapiens, 72 hours post-treatment
endpoint: GI50 (µM)
The answer is to be given in µM; state only the numeric part.

Q: Quick check: GI50 of O=C(CCCc1cc(C(=O)NO)no1)Nc1nc(-c2ccccc2)cs1 [Compound 2] ?
A: 0.7

Q: Also CCOC(=O)Nc1cccc(-c2csc(NC(=O)CCc3cc(C(=O)NO)no3)n2)c1 [Compound 5] , if possible.
A: 2.1

Q: Also O=C(NO)c1ccc(CNC(=O)c2cc(Cn3c4ccccc4c4ccccc43)on2)cc1 [Compound 18] , if possible.
A: 1.3

Q: Also O=C(CCc1cc(C(=O)NO)no1)Nc1nc(-c2ccccc2)cs1 [Compound 1] , if possible.
A: 1.3

Q: Also CCOC(=O)Nc1ccc(-c2csc(NC(=O)CCCc3cc(C(=O)NO)no3)n2)cc1 [Compound 4] , if possible.
A: 1.7

Q: Also CC(C)(C)OC(=O)Nc1ccc(-c2cc(C(=O)NCc3ccc(C(=O)NO)cc3)no2)cc1 [Compound 15] , if possible.
A: 2

----------
Molecular target: UniProt Q13547
Test: In vitro HDAC inhibition assay, HDAC1
Conditions: read-out: HDAC isoform IC50, HDAC1; NI = No inhibition at a concentration of 50 pM (footnote b)
For each record, write down the corresponding IC50.
The answer is to be given in nM; state only the numeric part.

Q: Request - read-out IC50 | tested on UniProt Q13547 | compound CC(C)(C)OC(=O)Nc1ccc(-c2csc(NC(=O)CCCc3cc(C(=O)NO)no3)n2)cc1 [Compound 3]
A: 401

Q: Also CC(C)(C)OC(=O)Nc1cccc(-c2cc(C(=O)NCc3ccc(C(=O)NO)cc3)no2)c1 [Compound 14] , if possible.
A: 444

Q: Also CCOC(=O)Nc1ccc(-c2csc(NC(=O)CCCc3cc(C(=O)NO)no3)n2)cc1 [Compound 4] , if possible.
A: 200

Q: Also CC(C)(C)OC(=O)Nc1ccc(-c2cc(C(=O)NCCc3cc(C(=O)NO)no3)no2)cc1 [Compound 6] , if possible.
A: 16900

Q: Also O=C(NO)c1ccc(CNC(=O)c2cc(Cn3c4ccccc4c4ccccc43)on2)cc1 [Compound 18] , if possible.
A: 495

Q: Also O=C(NO)c1ccc(CNC(=O)c2cc(-c3cccc(NC(=O)C4CCCCC4)c3)on2)cc1 [Compound 17] , if possible.
A: 212

Q: Also O=C(CCCc1cc(C(=O)NO)no1)Nc1nc(-c2ccccc2)cs1 [Compound 2] , if possible.
A: 351

Q: Also O=C(Nc1cccc(-c2cc(C(=O)NCCc3cc(C(=O)NO)no3)no2)c1)c1ccccc1 [Compound 12] , if possible.
A: 2930
